Catalogue of compounds with associated inhibition
- Target under test: Phosphotyrosine-protein phosphatase PTPB (Mycobacterium tuberculosis)
- Sequence (whole entry): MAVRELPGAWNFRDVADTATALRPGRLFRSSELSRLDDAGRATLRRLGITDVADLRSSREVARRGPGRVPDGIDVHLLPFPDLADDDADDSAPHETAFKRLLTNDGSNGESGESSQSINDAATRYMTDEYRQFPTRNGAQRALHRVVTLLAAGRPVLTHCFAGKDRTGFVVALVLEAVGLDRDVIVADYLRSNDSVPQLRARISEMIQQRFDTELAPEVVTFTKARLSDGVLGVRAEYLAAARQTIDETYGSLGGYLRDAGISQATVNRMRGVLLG
- Test description: Inhibition of Mycobacterium tuberculosis PTP-B using p-nitrophenyl phosphate as substrate at 25 uM measured for 10 mins by spectrofluorimetry
State the answer as a number, implicitly in %.

Answered cases to consult:
mol=O=C(/C=C/c1ccccc1)c1ccc2ccccc2c1 target_under_test="Phosphotyrosine-protein phosphatase PTPB (Mycobacterium tuberculosis)" measure=inhibition reported_value=16
mol=O=C(/C=C/c1cc(Cl)cc(Cl)c1)c1ccc2c(c1)OCO2 target_under_test="Phosphotyrosine-protein phosphatase PTPB (Mycobacterium tuberculosis)" measure=inhibition reported_value=0
mol=O=C(/C=C/c1ccc(Cl)c(C(F)(F)F)c1)c1ccc2ccccc2c1 target_under_test="Phosphotyrosine-protein phosphatase PTPB (Mycobacterium tuberculosis)" measure=inhibition reported_value=0
mol=COc1ccc2nc(Cl)c(/C=C/C(=O)c3ccc4ccccc4c3)cc2c1 target_under_test="Phosphotyrosine-protein phosphatase PTPB (Mycobacterium tuberculosis)" measure=inhibition reported_value=17
mol=O=C(/C=C/c1cccc([N+](=O)[O-])c1)c1ccc2c(c1)OCO2 target_under_test="Phosphotyrosine-protein phosphatase PTPB (Mycobacterium tuberculosis)" measure=inhibition reported_value=22

Input: Supply inhibition value. Item: "COc1ccc(/C=C/C(=O)c2ccc3c(c2)OCO3)c(OC)c1OC"
Output: 9

Input: Name the recorded inhibition of the compound listed here: "O=C(/C=C/c1ccc2c(c1)OCO2)c1ccc2ccccc2c1"
Output: 0

Input: Return reported inhibition. Input compound: "COc1cc(/C=C/C(=O)c2ccc3c(c2)OCO3)ccc1OCc1ccccc1"
Output: 0

Input: Using the record for "COc1ccc(OC)c(C(=O)/C=C/c2ccc(OCc3ccccc3)c(OC)c2)c1" , state its measured inhibition.
Output: 16

Input: For "O=C1COc2ccc(C(=O)/C=C/c3ccc4ccccc4c3)cc2N1" , write its inhibition.
Output: 24

Input: State, in one line, measured inhibition of "COc1cccc(OC)c1/C=C/C(=O)c1ccc2ccccc2c1"
Output: 24
